tested on: SR; assay: NCI tumour cell line growth inhibition, 48 h
Active and inactive are the calls of the source. Cut-off read from the data, not from the text of the source: active = GI50 up to about 1.1 µM and inactive = higher.
Classes used: Yes = active, No = inactive

[[record]]
compound = "C=CCOC1(CC=C)C(=O)OC2C(O)COC21O (stereo not drawn)"
label = "No"

[[record]]
compound = "CC1(C)OCC(C(O)C2OC(C)(C)OC2C=O)O1 (stereo not drawn)"
label = "No"

[[record]]
compound = "O=C1CCCC1C(=O)Nc1ccc2ccccc2c1 (stereo not drawn)"
label = "No"

[[record]]
compound = "S=C1c2ccccc2N=C(NC2CCCC2)C2CSCN12 (stereo not drawn)"
label = "No"

[[record]]
compound = "CC(=O)C(/N=N\\C1CCC(S(=O)(=O)NB2N=CS2)CC1)C(=O)Nc1ccccc1C (stereo not drawn)"
label = "No"

[[record]]
compound = "O=C1CC(=O)NC(NN2C(=O)CSC2c2ccc(Cl)c(Cl)c2)=N1 (stereo not drawn)"
label = "No"

[[record]]
compound = "CCN(CC)c1ccc2c(c1)N=C1N=CC=CN1C2(c1ccc(N(C)C)cc1)c1ccc(N(C)C)cc1"
label = "No"

[[record]]
compound = "COC(=O)c1ccccc1/N=C/c1ccc(N(CCC#N)S(=O)(=O)c2ccccc2)cc1"
label = "No"

[[record]]
compound = "CCCC1=C(CC)C(C(=O)Nc2c(C)cccc2C)=NC(S)N1 (stereo not drawn)"
label = "No"

[[record]]
compound = "CC1CC(C)C2OC2(C)C[C@H](C)C(=O)NC(C)C(=O)N(C)[C@H](Cc2c(Br)[nH]c3ccccc23)C(=O)N[C@@H](c2ccc(O)cc2)CC(=O)O1 (stereo partly drawn)"
label = "Yes"

[[record]]
compound = "COC(=O)C1C(C(=O)OC)C1(Br)CBr (stereo not drawn)"
label = "No"

[[record]]
compound = "COC(=O)C1(c2cc3ccccc3n2S(=O)(=O)c2ccccc2)CC2C=CC1NC2 (stereo not drawn)"
label = "Yes"

[[record]]
compound = "COc1ccc(/C=C2\\C[C@H]3[C@@H]4CCC5=C[C@@H](N6CCCC6)CC[C@]5(C)[C@H]4CC[C@]3(C)[C@H]2O)cc1"
label = "Yes"

[[record]]
compound = "CCOC(=O)c1nnn(CCCCO)c1C(=O)OCC"
label = "No"

[[record]]
compound = "CCCN1C(=O)CNC(=O)c2[nH]cnc21"
label = "No"

[[record]]
compound = "N#CSC#CCCC#CSC#N"
label = "No"

[[record]]
compound = "Cc1c(O)c(OC2OC(CO)C(O)C(O)C2O)cc2c1C=C[C@@H]1[C@@]2(C)C(=O)C[C@]2(C)[C@@H]([C@@](C)(O)C(=O)CCC(C)(C)O)[C@H](O)C[C@@]12C (stereo partly drawn)"
label = "No"

[[record]]
compound = "Cc1nn(C(=O)c2ccncc2)c2c1C(c1ccc(Cl)cc1)SC(=N)N2 (stereo not drawn)"
label = "No"

[[record]]
compound = "COc1cc2c(c(OC)c1OC)-c1ccc(SC)c(=O)cc1C(CC(=O)Oc1cccc(F)c1)C2 (stereo not drawn)"
label = "Yes"

[[record]]
compound = "Cc1ccc2[nH]c3c(c2c1)C1CCC(C(C)(C)C)CC1C1C(=O)N(c2ccc4c(c2)OCO4)C(=O)C31 (stereo not drawn)"
label = "No"

[[record]]
compound = "O=C(O)CSC(CC(=O)c1ccc(Cl)cc1)c1ccc(Cl)cc1 (stereo not drawn)"
label = "No"

[[record]]
compound = "COCn1cc(C2=C(C)C(=O)C(C)=C(C)C2=O)cn1"
label = "No"

[[record]]
compound = "c1ccc(-c2nnc3nn4c(-c5ccccc5)cnnc4c3c2-c2ccccc2)cc1"
label = "No"


Hey, just so you know, these numbers are from ChEMBL document CHEMBL1201862.
